pIC50: −log10 of the molar value.
These molecules were tested on PTP1B (Homo sapiens); pIC50 is the recorded read-out.
Sequence (P18031 whole entry): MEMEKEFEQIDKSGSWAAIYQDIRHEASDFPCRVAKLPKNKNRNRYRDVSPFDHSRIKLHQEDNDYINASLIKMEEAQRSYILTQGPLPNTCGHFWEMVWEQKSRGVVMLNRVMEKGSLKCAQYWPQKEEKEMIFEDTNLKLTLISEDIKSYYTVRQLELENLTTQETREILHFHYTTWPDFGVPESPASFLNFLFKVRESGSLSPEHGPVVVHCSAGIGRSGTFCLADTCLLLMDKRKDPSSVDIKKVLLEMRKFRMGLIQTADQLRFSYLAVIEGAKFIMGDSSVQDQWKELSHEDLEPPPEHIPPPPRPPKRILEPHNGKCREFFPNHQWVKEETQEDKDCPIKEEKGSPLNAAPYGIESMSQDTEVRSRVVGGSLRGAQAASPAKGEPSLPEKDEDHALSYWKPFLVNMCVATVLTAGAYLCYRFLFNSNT

| Molecule | pIC50 |
| --- | --- |
| O=C(Nc1nc2c(Cl)cccc2s1)C(c1ccccc1)S(=O)(=O)O (centres unmarked) | 4.15 |
| O=C(Nc1nc2ccccc2s1)C(c1ccccc1)S(=O)(=O)O (centres unmarked) | < 3.70 |
| O=C(O)c1ccc2nc(NC(=O)C(c3ccccc3)S(=O)(=O)O)sc2c1 (centres unmarked) | < 3.70 |
| Nc1ccc2nc(NC(=O)C(c3ccccc3)S(=O)(=O)O)sc2c1 (centres unmarked) | < 3.70 |

QUERY: Fill blank: measured pIC50 of the molecule O=C(Nc1nc(-c2ccccc2)cs1)C(c1ccccc1)S(=O)(=O)O (centres unmarked) is ____.
RESULT: 3.80

QUERY: What about this molecule? O=C(CS(=O)(=O)O)Nc1nc2ccccc2s1
RESULT: < 4.00

QUERY: What about this molecule? COc1cccc2sc(NC(=O)C(c3ccccc3)S(=O)(=O)O)nc12 (centres unmarked)
RESULT: < 3.70

QUERY: What about this molecule? O=C(Nc1ccc(N2CCOCC2)cc1)C(c1ccccc1)S(=O)(=O)O (centres unmarked)
RESULT: < 3.70

Sourced from patent US10494332B2
